Assay: Cytotoxicity against human fibroblast cells assessed as viable cells at 10 uM by trypan blue staining based assay
Type: cell-based
Conditions: read-out: Activity
Task for the reader: assign each of the following compounds its reported viability at 10 µM.
Numbers only, in %.

Recorded results for 3 compounds are shown here.
compound: CC1CN(CCOC(=O)C(c2ccccc2)C2C=CCCC2)C(C)(C)C1 (centres undefined)
viability at 10 µM / %: 84

compound: ClCCNCc1cccc(Nc2ccnc3cc(Cl)ccc23)c1
viability at 10 µM / %: 96

compound: NC(c1ccc2c(c1)OCO2)C(O)c1ccc2c(c1)OCO2 (centres undefined)
viability at 10 µM / %: 100

# batch size: 4; output viability at 10 µM per entry
1. CCCC(=O)N(C)C1=Nc2ccc(Cl)cc2C(c2ccccc2)=[N+]([O-])C1
2. CCN(CC)CCC(=O)NC1c2ccc(Cl)cc2Oc2c(C)cccc21 (centres undefined)
3. CCC(C)N1CN(c2ccccc2)C2(CCN(CC3COc4ccccc4O3)CC2)C1=O (centres undefined)
4. COc1ccc(Nc2ccnc3cc(Cl)ccc23)cc1CNCC(C)C

100
100
100
12

---

Assay: Cytotoxicity against human fibroblast cells assessed as viable cells at 50 uM by trypan blue staining based assay
Format: cell-based
Details: read-out: Activity
Task for the reader: assign each of the following molecules its reported viability at 50 µM.
One number for each entry, in %.

molecule: COc1cc(-n2c(CCc3nc(-c4ccc(Cl)cc4)no3)n[nH]c2=S)c(OC)cc1Cl
measured.attribute: viability at 50 µM
quantitative.readout: 61

molecule: O=C1CN(CCN2CC(=O)N(Cc3ccccc3)C(=O)C2)CC(=O)N1Cc1ccccc1
measured.attribute: viability at 50 µM
quantitative.readout: 82

molecule: CC1(C)CCN(CCOC(=O)C(c2ccccc2)C2C=CCCC2)C1 (configuration not stated)
measured.attribute: viability at 50 µM
quantitative.readout: 59

molecule: C=CCN1CC[C@]23c4c5ccc(O)c4O[C@H]2C(=O)CC[C@@]3(O)[C@H]1C5
measured.attribute: viability at 50 µM
quantitative.readout: 100

molecule: C[N+]1(CCOC(=O)C(c2ccccc2)C2C=CCC2)CCCC12CCCCC2 (configuration not stated)
measured.attribute: viability at 50 µM
quantitative.readout: 81

# batch size: 2; output viability at 50 µM per entry
1. CC1CN(CCOC(=O)C(c2ccccc2)C2C=CCCC2)C(C)(C)C1 (configuration not stated)
2. NC(c1ccc2c(c1)OCO2)C(O)c1ccc2c(c1)OCO2 (configuration not stated)

1. 36
2. 82

---

Test system: MCF7
Assay: Cytotoxicity against human MCF7 cells assessed as viable cells at 10 uM by trypan blue staining based assay
Type: functional
Conditions: read-out: Activity
Task for the reader: assign each of the following compounds its reported viability at 10 µM.
One number for each entry, in %.

Recorded results for 5 compounds are shown here.
compound: COc1cc2c(cc1OC)C1C(CO)c3ccc4c(c3CN1CC2)OCO4 (stereo not drawn)
measured.attribute: viability at 10 µM
unit.info: %
quantitative.readout: 90
//
compound: Cc1nn(C(=O)Cc2ccccc2)c2c1C(c1ccc(O)cc1)SC(=N)N2 (stereo not drawn)
measured.attribute: viability at 10 µM
unit.info: %
quantitative.readout: 96
//
compound: COc1ccc(C2NC(C(=O)O)Cc3c2[nH]c2ccccc32)cc1OC (stereo not drawn)
measured.attribute: viability at 10 µM
unit.info: %
quantitative.readout: 89
//
compound: COc1cc2c(cc1OC)C(c1ccc(O)c(O)c1)CNC2 (stereo not drawn)
measured.attribute: viability at 10 µM
unit.info: %
quantitative.readout: 93
//
compound: CCCC(=O)N(C)C1=Nc2ccc(Cl)cc2C(c2ccccc2)=[N+]([O-])C1
measured.attribute: viability at 10 µM
unit.info: %
quantitative.readout: 95

# batch size: 8; output viability at 10 µM per entry
1. CN/N=C(\C)C(CN1CCCCC1)C(C1=C(O)c2ccccc2OC1)c1ccccc1 (stereo not drawn)
2. Cc1ccc(N2CCN(CCCOC(=O)Nc3cccc4ccccc34)CC2)cc1
3. COc1cc(C2CNCc3cc(O)c(OC)cc32)ccc1O (stereo not drawn)
4. N=c1[nH]c(=O)n(CCCCOc2ccccc2)cc1-c1ccc(Cl)c(Cl)c1
5. CN(C)C1C(c2ccccc2)S(=O)(=O)C1C1CS(=O)(=O)C1c1ccccc1 (stereo not drawn)
6. CCC(C)N1CN(c2ccccc2)C2(CCN(CC3COc4ccccc4O3)CC2)C1=O (stereo not drawn)
7. Fc1ccc(N/C2=N/CC/N=C(/Nc3ccc(F)cc3)SS2)cc1
8. COc1ccc(Nc2ccnc3cc(Cl)ccc23)cc1CNCC(C)C

1: 100; 2: 93; 3: 75; 4: 77; 5: 68; 6: 93; 7: 92; 8: 26
